Consider the following compounds and their measured EC50 readings.
biological target: human adenosine A2B receptor (Homo sapiens (Human)); test: Adenosine A2B Receptor Cyclic AMP GS Assay; settings: HEK-293 cells expressing human A2B receptor; agonist NECA at 12 nM; cAMP accumulation (FRET); read-out: A2B_cAMP_EC50
Sequence (P29275 whole entry): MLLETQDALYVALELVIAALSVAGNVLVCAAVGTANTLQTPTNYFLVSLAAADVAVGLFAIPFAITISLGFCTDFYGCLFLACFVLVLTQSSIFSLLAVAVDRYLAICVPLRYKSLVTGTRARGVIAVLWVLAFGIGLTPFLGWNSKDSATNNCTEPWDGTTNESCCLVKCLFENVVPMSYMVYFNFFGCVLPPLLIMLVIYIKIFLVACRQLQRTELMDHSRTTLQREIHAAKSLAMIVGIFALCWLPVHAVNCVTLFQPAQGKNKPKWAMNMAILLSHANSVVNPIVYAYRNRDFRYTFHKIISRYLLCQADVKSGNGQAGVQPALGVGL

Examples with their reported EC50 follow.
[[record]]
compound = "CCn1cc(-c2c(-c3cccc(C#N)c3)nc(N)n3cc(C(=O)N4CC(O)C4)nc23)ccc1=O [Example 24]"
measurement_type = "EC50"
endpoint_value = "< 0.01 µM"

[[record]]
compound = "CCNC(=O)c1cn2c(N)nc(-c3ccccc3)c(C3CCN(C(N)=O)CC3)c2n1 [Example 16]"
measurement_type = "EC50"
endpoint_value = "0.1 to 1 µM"

[[record]]
compound = "Cc1nc(CO)c(-c2c(-c3cccc(C#N)c3)nc(N)n3nc(Cc4ccccn4)nc23)o1 [Example 62]"
measurement_type = "EC50"
endpoint_value = "< 0.01 µM"

[[record]]
compound = "Cc1cccnc1Cc1nc2c(-c3ocnc3C)c(-c3cccc(C#N)c3)nc(N)n2n1 [Example 84]"
measurement_type = "EC50"
endpoint_value = "< 0.01 µM"


Give the reported value of EC50 for this record: CCNC(=O)c1cn2c(NCC)nc(-c3ccccc3)c(-c3cc(C)nc(C)c3)c2n1 [Example 22]
> 1 µM

Give the reported value of EC50 for this record: Cc1cc(-c2c(-c3ccccc3)nc(N)n3cc(C(N)=O)nc23)ccn1 [Example 14]
0.01 to 0.1 µM

Give the reported value of EC50 for this record: N#Cc1cccc(-c2nc(N)n3nc(Cc4c(F)cccc4CN4CCC(C(=O)O)CC4)nc3c2-c2ccncn2)c1 [Example 73]
0.01 to 0.1 µM

Give the reported value of EC50 for this record: N#Cc1cccc(-c2nc(N)n3nc(COc4ccccc4C#N)nc3c2-c2ccncn2)c1 [Example 96]
< 0.01 µM
